Attribution: PubChem BioAssay (NCI)

test system: M14 melanoma; experiment: NCI-60 one-dose screen, 48 h; settings: 10 µM unless noted
The panel holds about 83,000 compounds, 20% with a hit somewhere; the sample as a whole holds those more often. The source made the active and inactive calls. How the source made its calls: active means growth percent below 10; inactive means the rest.
Outcome codes: active, inactive

compound: COc1ccc2c(c1)cn1c3ccc(O)cc3[nH]c(=O)c21
study.system: M14 melanoma
label: inactive

compound: COc1cccc(NC(=O)NCCNc2nccc(-c3c(-c4ccc(F)cc4)nc4sccn34)n2)c1
study.system: M14 melanoma
label: inactive

compound: CCCCCCCCCCCCCCCCCC1=NCCN1CCNC(C)=O
study.system: M14 melanoma
label: inactive

compound: O=c1oc2ccc3ccccc3c2cc1-c1ccnc2[nH]c(=S)[nH]c(=O)c12
study.system: M14 melanoma
label: inactive

compound: CSCc1ncc(-c2ccc(C(F)(F)F)cc2)c(NC2CCCCCC2)n1
study.system: M14 melanoma
label: inactive

compound: CCCCCCCCCCC1OC(C)CC(C)O1 (stereo not given)
study.system: M14 melanoma
label: inactive

compound: COc1cc(OC)cc(-c2ccc(-c3ccc(C(=N)N)cc3)s2)c1
study.system: M14 melanoma
label: active

compound: COC(=O)c1ccc2[nH]c(O)c(C(=Nc3ccc(N(C)C(=O)CN4CCN(C)CC4)cc3)c3ccc(N)cc3)c2c1
study.system: M14 melanoma
label: inactive

compound: CCOC(=O)c1sc(NS(=O)(=O)c2ccccc2)nc1C
study.system: M14 melanoma
label: inactive

compound: COc1cc2cc3cc4cc(OC)c(OC)cc4c(C)[n+]3cc2cc1OC (tested in a mixture with another compound)
study.system: M14 melanoma
label: inactive

---

Each record here notes measured growth.
tested on: CAKI-1 renal; test: NCI-60 one-dose screen, 48 h (100 = growth as untreated, 0 = no growth, -100 = all killed); conditions: 10 µM unless noted
Compounds without any hit were thinned out: in the full panel of roughly 83,000, 20% have a hit.
recorded.metric: growth (%)

compound: CCCCCCCCCCCCCCCC[n+]1cccc(C#N)c1
study.system: CAKI-1 renal
recorded.metric: growth
unit.abbrev: %
observed.result: 73
--
compound: COCn1c(C(=O)OC)cc2oc(/C=C3/SC(=S)N(N)C3=O)cc21
study.system: CAKI-1 renal
recorded.metric: growth
unit.abbrev: %
observed.result: 87.3
--
compound: Clc1ccc(N/N=C(\c2ccccc2)c2ccccn2)nc1
study.system: CAKI-1 renal
recorded.metric: growth
unit.abbrev: %
observed.result: 6.96
--
compound: C/C(CCC(=O)O)=N/Nc1ccc([N+](=O)[O-])cc1
study.system: CAKI-1 renal
recorded.metric: growth
unit.abbrev: %
observed.result: 25.7
--
compound: CC1(C)NC(=S)NC1=O
study.system: CAKI-1 renal
recorded.metric: growth
unit.abbrev: %
observed.result: 97.8
--
compound: CCCCCCNc1nc(N2CCOCC2)c2[nH]c(NCCCCCC)nc2n1
study.system: CAKI-1 renal
recorded.metric: growth
unit.abbrev: %
observed.result: -63.8
--
compound: C/C(=N\Nc1ccc(Cl)cn1)c1ccccn1
study.system: CAKI-1 renal
recorded.metric: growth
unit.abbrev: %
observed.result: 5.04
--
compound: CC1(C)NCCC[C@]2(C)[C@H]3CC=C4[C@@H]5C[C@](C)(COC(=O)c6ccccc6C(=O)O)CC[C@]5(C)CC[C@@]4(C)[C@]3(C)CC[C@@H]12
study.system: CAKI-1 renal
recorded.metric: growth
unit.abbrev: %
observed.result: 86
--
compound: c1ccc(Nc2ncc3c(n2)-c2cccn2CC3)cc1
study.system: CAKI-1 renal
recorded.metric: growth
unit.abbrev: %
observed.result: 72.4
--
compound: Cc1cc2cn3c4ccc(O)cc4nc(N)c3c2cc1C
study.system: CAKI-1 renal
recorded.metric: growth
unit.abbrev: %
observed.result: -4.28
--
compound: COc1ccc(NC(=O)/C=C(C)/C=C/C=C(C)/C=C/C2=C(C)CCCC2(C)C)cc1
study.system: CAKI-1 renal
recorded.metric: growth
unit.abbrev: %
observed.result: 66.6
--
compound: COc1cc(-c2nn(-c3ccc(NC(=O)c4ccc(Cl)c(C(F)(F)F)c4)cc3)cc2-c2ccncc2)ccc1Cl
study.system: CAKI-1 renal
recorded.metric: growth
unit.abbrev: %
observed.result: -16.7
--
compound: COc1cc(/C=C/C(=O)c2ccc(F)cc2)ccc1OCCCCOc1cc2c(cc1OC)C(=O)N1CCCC1C=N2 (stereo not given)
study.system: CAKI-1 renal
recorded.metric: growth
unit.abbrev: %
observed.result: -14.2
--
compound: Cc1ncc(C(=O)Nc2ccc(CN3CCN(C)CC3)c(C(F)(F)F)c2)cc1C#Cc1cnc(NC2CC2)c2ncccc12
study.system: CAKI-1 renal
recorded.metric: growth
unit.abbrev: %
observed.result: -0.579
--
compound: CC(=O)Oc1cc2ccccc2cc1C(C)C
study.system: CAKI-1 renal
recorded.metric: growth
unit.abbrev: %
observed.result: 106
--
compound: O=C(Nc1ccc(-n2cc(-c3ccncc3)c(-c3ccc(Cl)c(O)c3)n2)cc1)c1ccc(Cl)c(Cl)c1
study.system: CAKI-1 renal
recorded.metric: growth
unit.abbrev: %
observed.result: 0.324
--
compound: NNC(=O)CNc1ccc2ccccc2c1
study.system: CAKI-1 renal
recorded.metric: growth
unit.abbrev: %
observed.result: 106
--
compound: O=C(CN1C(=O)NC(c2ccccc2)(c2ccccc2)C1=O)c1ccc(N2CCCC2)cc1
study.system: CAKI-1 renal
recorded.metric: growth
unit.abbrev: %
observed.result: 70.5
--
compound: CC1=C[C@@H]2c3c(c(O)c(O)c4oc5cc(O)cc(O)c5c(=O)c34)[C@@H](c3cc(O)c(O)c4oc5cc(O)cc(O)c5c(=O)c34)[C@@H]2C(C)(C)C1
study.system: CAKI-1 renal
recorded.metric: growth
unit.abbrev: %
observed.result: 19.8
--
compound: CC(=O)Nc1ccc(C(=O)/C=C/c2ccc(N(C)C)cc2)cc1
study.system: CAKI-1 renal
recorded.metric: growth
unit.abbrev: %
observed.result: 97

---

system: MOLT-4 leukemia; assay: NCI-60 one-dose screen, 48 h (100 = growth as untreated, 0 = no growth, -100 = all killed); settings: 10 µM unless noted
Compounds without any hit were thinned out: in the full panel of roughly 83,000, 20% have a hit.
growth vs 70%: less than gives True; not less than gives False.

compound: CCN(CC)CCCC(C)Nc1c(C)cnc2cc(Cl)c(C)cc12 (stereo not given)
study.system: MOLT-4 leukemia
label: True

compound: O=C1C(Cl)=C(Nc2ccc(Nc3ccccc3)c(NC3=C(Cl)C(=O)c4ccccc4C3=O)c2)C(=O)c2ccccc21
study.system: MOLT-4 leukemia
label: True

compound: c1ccc(Nc2ncc3c(n2)-c2cccn2CC3)cc1
study.system: MOLT-4 leukemia
label: False

compound: NC(CSC(c1ccccc1)(c1ccccc1)c1ccccc1)C(=O)NCC(=O)O (stereo not given)
study.system: MOLT-4 leukemia
label: False

compound: COc1nc(OC)nc(-c2cc(C(=O)c3ccc(Br)cc3)n3cc(C)cc(C)c23)n1
study.system: MOLT-4 leukemia
label: False

compound: COc1cc2c(/C=C3\C(=O)Nc4ccc(Br)cc43)c(Cl)n(C)c2cc1C
study.system: MOLT-4 leukemia
label: True

compound: Cc1ncc(C(=O)Nc2ccc(CN3CCN(C)CC3)c(C(F)(F)F)c2)cc1C#Cc1c(N)ncc2ccccc12
study.system: MOLT-4 leukemia
label: True

compound: CC(C)OC(=O)c1ccc2n1CCCc1cnc(Nc3ccccc3)nc1-2
study.system: MOLT-4 leukemia
label: False

compound: CC(C)(C)c1ccc([I+]c2ccc(C(C)(C)C)cc2)cc1
study.system: MOLT-4 leukemia
label: True

---

tested on: HCT-15 colon; experiment: NCI-60 one-dose screen, 48 h; details: 10 µM unless noted
The panel holds about 83,000 compounds, 20% with a hit somewhere; the sample as a whole holds those more often. Calls of active or inactive are those of the source. How the source made its calls: active means growth percent below 10; inactive means the rest.
Outcome codes: YES for active, NO for inactive

compound: COc1ccc2cnc(N)c(C#Cc3cc(C(=O)Nc4ccc(CN5CCN(C)CC5)c(C(F)(F)F)c4)cnc3C)c2c1
label: NO

compound: COc1cc(-c2nn(-c3ccc(NC(=O)Nc4ccc(Cl)c(C(F)(F)F)c4)cc3)cc2-c2ccncc2)ccc1Cl
label: YES

compound: CCc1c(C)c2ccc(OCC(=O)N=Nc3c(O)[nH]c4ccccc34)c(C)c2oc1=O
label: YES

compound: CCOC(=O)c1c(C)oc2ncnc(Nc3ccc(NC(=O)Nc4ccc(CC)cc4)cc3)c12
label: NO

compound: CCCCCCNC(=O)Oc1ccc(/C(=C(/C)Cc2ccc(OC)cc2)c2ccc(OCCN3CCCCC3)cc2)cc1
label: NO

compound: Cc1ccc(C(C)C)c(OCc2ccc(C(=O)N/N=C/c3cccc(O)c3O)cc2)c1
label: NO

compound: CCCC(=O)NNc1[nH]c(-c2cc(OC)c(OC)c(OC)c2)cc1C(=O)OCC
label: NO

compound: N=C(N)N=Nc1ccc(NN=C(N)N)cc1
label: NO

compound: CCOC(=O)C1=C(C(F)(F)F)NC(=S)NC1CN1C(=O)c2ccccc2C1=O (centres undefined)
label: NO
